# Tested on: human prostate adenocarcinoma cell line DU145
# test-description: MTT assay, quinones, DU145
# Assay type: cell-based
# assay-setup: DU-145, Table 3, treatment time not given in cell, read-out: ID50 DU145
readout: pIC50
Note: pIC50 values are expressed as the negative base-10 logarithm of concentration in M.

# example entries with known answers
> print(dat)
                               smiles.entry                             target.system  readout  observed.value
1             O=C1C=C(OCCCCCCO)c2ccccc2C1=O  human prostate adenocarcinoma cell line DU145    pIC50            4.95
2  O=C1C=C(CCCCCCCCc2ccc(Nc3c4ccccc4nc4ccccc34)cc2)c2ccccc2C1=O  human prostate adenocarcinoma cell line DU145    pIC50            6.89

pIC50 reading for O=C1C=C(OCCCCCCCc2ccc(Nc3c4ccccc4nc4ccccc34)cc2)c2ccccc2C1=O : 6.89
